biological target: HLA-B*40:01; assay: IEDB peptide-MHC binding, purified MHC/direct/fluorescence; filed as Kd, often an IC50 or EC50 that approximates it; bounds were set here for any values at or beyond the usual limits of such assays; conditions: source organism: Pseudomonas aeruginosa UCBPP-PA14
pKd: −log10 of the molar value.
Property label: pKd

Fill in the blank: the reported pKd of RDYRTISPR is ____. ≤ 4.70

* * *

molecular target: HLA-A*03:01; experiment: IEDB peptide-MHC binding, purified MHC/direct/fluorescence; filed as Kd, often an IC50 or EC50 that approximates it; bounds were set here for any values at or beyond the usual limits of such assays; settings: source organism: Mycobacterium tuberculosis str. Haarlem
pKd: −log10 of the molar value.
Catalogue of pKd readings, one per entry.

[
  {
    "Residues": "MAVTAAPYI",
    "Experimental target": "HLA-A*03:01",
    "pKd": "≤ 4.70"
  }
]

Now take the following sequence into account.
Fill in the blank: the reported pKd of FHARFVQAL is ____. ≤ 4.70
